Tested on: Bacillus subtilis
Experiment: Antibacterial activity against Bacillus subtilis MTCC 121 after 24 hrs by well diffusion method
Assay type: functional
Settings: MTCC 121, 24 h
Readings of MIC for the listed compounds
Value kind: MIC

INSERT INTO measurements (chem_smiles, value_kind, result) VALUES
  ('CCNC(=O)Cn1nc(C(F)(F)F)c2c(C)c3ccccc3nc21', 'MIC', '7.8 to 125 µg/mL'),
  ('Cc1nn(CC(=O)NCc2ccco2)c2nc3ccccc3c(C)c12', 'MIC', '7.8 to 125 µg/mL'),
  ('CNC(=O)Cn1nc(C(F)(F)F)c2c(-c3ccccc3)c3ccccc3nc21', 'MIC', '7.8 to 125 µg/mL'),
  ('Cc1c2ccccc2nc2c1c(C(F)(F)F)nn2CC(=O)N1CCCCC1', 'MIC', '7.8 to 125 µg/mL'),
  ('O=C(Cn1nc(C(F)(F)F)c2c(-c3ccccc3)c3ccccc3nc21)NCc1ccco1', 'MIC', '7.8 to 125 µg/mL'),
  ('CCNC(=O)Cn1nc(C(F)(F)F)c2c(-c3ccccc3)c3ccccc3nc21', 'MIC', '7.8 to 125 µg/mL'),
  ('Cc1nn(CC(=O)N2CCCCC2)c2nc3ccccc3c(C)c12', 'MIC', '7.8 to 125 µg/mL'),
  ('O=C(Cn1nc(C(F)(F)F)c2c(-c3ccccc3)c3ccccc3nc21)N1CCN(CCO)CC1', 'MIC', '7.8 to 125 µg/mL'),
  ('O=C(O)c1cn(C2CC2)c2cc(N3CCNCC3)c(F)cc2c1=O', 'MIC', '0.9 µg/mL'),
  ('O=C(Cn1nc(C(F)(F)F)c2c(-c3ccccc3)c3ccccc3nc21)NCCN1CCNCC1', 'MIC', '3.9 µg/mL'),
  ('Cc1c2ccccc2nc2c1c(C(F)(F)F)nn2CC(=O)N1CCOCC1', 'MIC', '7.8 to 125 µg/mL'),
  ('CNC(=O)Cn1nc(C(F)(F)F)c2c(C)c3ccccc3nc21', 'MIC', '7.8 to 125 µg/mL');

---

Tested on: Pichia kudriavzevii
Test: Antifungal activity against Candida krusei MTCC 3020 after 24 hrs by well diffusion method
Format: functional
Conditions: MTCC 3020, 24 h
Readings of MIC for the listed compounds
Value kind: MIC (µg/mL)

INSERT INTO assay_data (compound, tested_system, value_kind, numeric_value) VALUES
  ('COc1ccc(NC(=O)Cn2nc(C(F)(F)F)c3c(-c4ccccc4)c4ccccc4nc32)cc1', 'Pichia kudriavzevii', 'MIC', 62.5),
  ('O=C(Cn1nc(C(F)(F)F)c2c(-c3ccccc3)c3ccccc3nc21)NCCN1CCNCC1', 'Pichia kudriavzevii', 'MIC', 15.6),
  ('O=C(Cn1nc(C(F)(F)F)c2c(-c3ccccc3)c3ccccc3nc21)N1CCOCC1', 'Pichia kudriavzevii', 'MIC', 31.2),
  ('Clc1ccc(COC(Cn2ccnc2)c2ccc(Cl)cc2Cl)c(Cl)c1 (centres undefined)', 'Pichia kudriavzevii', 'MIC', 7.8);

---

Readings of MIC for the listed compounds
System: Raoultella planticola
Assay: Antibacterial activity against Klebsiella planticola MTCC 530 after 24 hrs by well diffusion method
Format: functional
Settings: MTCC 530, 24 h
Value kind: MIC

INSERT INTO measurements (chem_smiles, result) VALUES
  ('CNC(=O)Cn1nc(C(F)(F)F)c2c(-c3ccccc3)c3ccccc3nc21', '7.8 to 125 µg/mL'),
  ('Cc1c2ccccc2nc2c1c(C(F)(F)F)nn2CC(=O)Nc1ccc([N+](=O)[O-])cc1', '7.8 to 125 µg/mL'),
  ('CCCNC(=O)Cn1nc(C(F)(F)F)c2c(-c3ccccc3)c3ccccc3nc21', '7.8 to 125 µg/mL'),
  ('Cc1c2ccccc2nc2c1c(C(F)(F)F)nn2CC(=O)NC1CCCCC1', '7.8 to 125 µg/mL'),
  ('O=C(Cn1nc(C(F)(F)F)c2c(-c3ccccc3)c3ccccc3nc21)NCCN1CCNCC1', '3.9 µg/mL');

Origin of the recorded values: ChEMBL document CHEMBL4014279
